Hey, just so you know, these numbers are from ChEMBL document CHEMBL3576803.

- Tested on: Alternaria brassicae
- procedure summary: Antifungal activity against Alternaria brassicae QDAU-1 by microplate assay
- Format: functional
Measured MIC by item

Past entries and their recorded results:
molecule: Cc1ccc([C@@]2(C)CCC(=O)O2)c(O)c1
measured on: Alternaria brassicae
obs value: > 32 µg/mL
//
molecule: C/C(=C\CCC(C)C)c1ccc(Cc2c(C)cc(Oc3cc(C)cc(O)c3)cc2O)cc1O
measured on: Alternaria brassicae
obs value: 32 µg/mL
//
molecule: CC(C)(O)CCC[C@](C)(O)c1ccc(C(=O)O)cc1O
measured on: Alternaria brassicae
obs value: > 32 µg/mL

Q: I have this molecule here, C=C(C)CCC[C@](C)(O)c1ccc(C(=O)O)cc1O [11-DEHYDROSYDONIC ACID] , and I need its recorded MIC.
Result: > 32 µg/mL

Q: Item under review: CC(C)CCC[C@](C)(O)c1ccc(C(=O)O)cc1O . Reported MIC?
Result: > 32 µg/mL
